Test: Cell number (propidium iodide)
Format: cell-based
Conditions: neonatal rat cardiomyocytes; rat cardiomyocytes (CM), 24 HR exposure; read-out: Cell Number TC50
Description: One test compound (Compound A) was received as dry powder and evaluated for potential cytotoxicity in a battery of in vitro assays. The compound was tested using both rat cardiomyocytes (CM) from rat neonates and a rat hepatoma (H4IIE) cell line. […] General cytotoxicity was evaluated by monitoring membrane integrity, mitochondrial function, cell proliferation, oxidative stress, and apoptosis. […] The means of each exposure group (n=3-7) were calculated for each assay performed. […]
readout.kind: CC50 at 24 h (µM)
Give bare numbers, in µM.

The compound CC[C@@]1(O)C(=O)OCc2c1cc1n(c2=O)Cc2cc3ccccc3nc2-1 showed CC50 at 24 h equal to 293

* * *

Assay: Solubility in culture medium (nephelometry)
Format: physicochemical
Conditions: 37 °C, plasma or biological fluid, kinetic from dmso stock, dosing medium with 20% serum, 37° C.; CM 1 HR; read-out: Highest Soluble Concentration Tested
readout.kind: solubility (µM)
One number for each entry, in µM.

The compound COc1cccc2c1C(=O)c1c(O)c3c(c(O)c1C2=O)C[C@@](O)(C(=O)CO)C[C@@H]3O[C@H]1C[C@H](N)[C@H](O)[C@H](C)O1 showed solubility equal to 100

* * *

Experiment: MTT reduction
Assay type: cell-based
Settings: human hepatocytes, read-out: MTT TC50
readout.kind: CC50 at 24 h (nM)
Answers are plain numbers, in nM.

The compound C=C(C)[C@H]1Cc2c(ccc3c2O[C@@H]2COc4cc(OC)c(OC)cc4[C@@H]2C3=O)O1 [ROTENONE, Rotenone] showed CC50 at 24 h equal to 3000

* * *

Assay: MemTox membrane leakage (AK / α-GST)
Assay type: cell-based, rat
Details: rat
Kindly supply the reported CC50 at 24 h values for the records listed here.
One number for each entry, in µM.

molecule.smiles | units | endpoint.result
O=C1Nc2ccc(Cl)cc2[C@@](C#CC2CC2)(C(F)(F)F)O1 | µM | 69

# ---- query compound ----
The compound Cc1cccc(C)c1OCC(=O)N[C@@H](Cc1ccccc1)[C@@H](O)C[C@H](Cc1ccccc1)NC(=O)[C@H](C(C)C)N1CCCNC1=O showed CC50 at 24 h equal to 76

* * *

Assay: Intracellular ATP levels
Assay type: cell-based, rat
Details: rat
Procedure: One test compound (Compound A) was received as dry powder and evaluated for potential cytotoxicity in a battery of in vitro assays. The compound was tested using both rat cardiomyocytes (CM) from rat neonates and a rat hepatoma (H4IIE) cell line. […] General cytotoxicity was evaluated by monitoring membrane integrity, mitochondrial function, cell proliferation, oxidative stress, and apoptosis. […] The means of each exposure group (n=3-7) were calculated for each assay performed. […]
readout.kind: CC50 at 24 h (µM)
Give bare numbers, in µM.

compound | units | CC50 at 24 h
COc1cccc2c1C(=O)c1c(O)c3c(c(O)c1C2=O)C[C@@](O)(C(=O)CO)C[C@@H]3O[C@H]1C[C@H](N)[C@@H](O)[C@H](C)O1 [EPIRUBICIN, epirubicin] | µM | 19
COc1cccc2c1C(=O)c1c(O)c3c(c(O)c1C2=O)C[C@@](O)(C(C)=O)C[C@@H]3O[C@H]1C[C@H](N)[C@H](O)[C@H](C)O1 [DAUNORUBICIN, daunorubicin] | µM | 9
CC(C)Nc1cccnc1N1CCN(C(=O)c2cc3cc(NS(C)(=O)=O)ccc3[nH]2)CC1 [DELAVIRDINE, delavirdine] | µM | 166
O=C1Nc2ccc(Cl)cc2[C@@](C#CC2CC2)(C(F)(F)F)O1 [EFAVIRENZ, efavirenz] | µM | 75

The compound O=C1c2c(O)ccc(O)c2C(=O)c2c(NCCNCCO)ccc(NCCNCCO)c21 [MITOXANTRONE, mitoxantrone] showed CC50 at 24 h equal to 2
